Reported values of melting point for individual entries

{"smiles.text": "O=C(NO)c1ccc(N2CCN(C(=O)c3cc(-c4cc(F)cc(F)c4)nc4ccccc34)CC2)cc1", "melting point": "221.8 to 222 °C"}
{"smiles.text": "O=C(NO)c1ccc(N2CCN(C(=O)c3cc(-c4ccc(C(F)(F)F)cc4)nc4ccccc34)CC2)cc1", "melting point": "212.7 to 213.9 °C"}
{"smiles.text": "O=C(NO)c1ccc(N2CCN(C(=O)c3cc(-c4cccc(F)c4)nc4ccccc34)CC2)cc1", "melting point": "225 to 226.3 °C"}
{"smiles.text": "CCCNNC(=O)c1ccc(N2CCN(C(=O)c3cc(-c4ccc(-c5ccccc5)cc4)nc4ccccc34)CC2)cc1", "melting point": "223.3 to 224.2 °C"}
{"smiles.text": "O=C(NO)c1ccc(N2CCN(C(=O)c3cc(-c4ccc(Cl)cc4)nc4ccccc34)CC2)cc1", "melting point": "228.1 to 229.2 °C"}
{"smiles.text": "O=C(NO)c1ccc(N2CCN(C(=O)c3cc(-c4ccc(NC(=O)c5ccc(F)cc5)cc4)nc4ccccc34)CC2)cc1", "melting point": "178.3 to 180.3 °C"}
{"smiles.text": "COc1ccc(-c2cc(C(=O)N3CCN(c4ccc(C(=O)NO)cc4)CC3)c3ccccc3n2)cc1", "melting point": "184.3 to 186.8 °C"}
